Biological target: TRPML1 (Homo sapiens, UniProt Q9GZU1)
Sequence (Q9GZU1 whole entry L15A/L16A/L577A/L578A, form open): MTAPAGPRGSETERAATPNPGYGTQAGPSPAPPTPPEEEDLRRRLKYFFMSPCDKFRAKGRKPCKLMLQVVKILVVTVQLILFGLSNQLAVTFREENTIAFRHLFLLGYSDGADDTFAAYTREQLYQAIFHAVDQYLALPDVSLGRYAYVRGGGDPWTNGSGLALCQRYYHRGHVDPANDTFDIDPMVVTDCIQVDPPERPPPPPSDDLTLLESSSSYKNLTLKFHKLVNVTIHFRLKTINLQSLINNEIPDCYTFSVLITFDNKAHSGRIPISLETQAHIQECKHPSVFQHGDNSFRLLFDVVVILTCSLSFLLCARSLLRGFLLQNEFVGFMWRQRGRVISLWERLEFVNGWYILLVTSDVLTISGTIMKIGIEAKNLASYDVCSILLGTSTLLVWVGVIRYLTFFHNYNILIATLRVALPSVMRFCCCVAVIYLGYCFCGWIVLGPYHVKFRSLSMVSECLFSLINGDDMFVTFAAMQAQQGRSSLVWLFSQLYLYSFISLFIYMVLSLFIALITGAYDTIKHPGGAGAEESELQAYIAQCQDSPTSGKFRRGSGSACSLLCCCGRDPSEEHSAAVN
Test: Fluorescent TRPML1 assay (Fluo4-AM calcium fluorescence in doxycycline-induced HEK-293 Trex cells)
Type: cell-based
Conditions: fluorescent calcium assay
measure-name: EC50

{"compound": "CC(OC(=O)N1CCN(c2ncnc3c2c(-c2ccccc2F)cn3-c2cc(C#N)ccn2)[C@@H](C)C1)C(F)(F)F (stereo partly shown)", "EC50": "< 100 nM"}
{"compound": "CC(C)OC(=O)N1CCN(c2ncnc3c2c(-c2ccccc2F)cn3-c2cc(C#N)ccn2)[C@@H](C)C1", "EC50": "< 100 nM"}
{"compound": "Cc1cncc(-n2cc(C3CC3)c3c(N4C[C@@H](C)N(C(=O)OC(C)(C)C)C[C@@H]4C)ncnc32)c1", "EC50": "100 to 500 nM"}
{"compound": "COc1cncc(-n2cc(-c3ccccc3F)c3c(N4C[C@@H](C)N(C(=O)OC(C)(C)C)C[C@@H]4C)ncnc32)c1", "EC50": "< 100 nM"}
{"compound": "C[C@H]1CN(C(=O)OC(C)(C)C(F)(F)F)CCN1c1ncnc2c1c(-c1cncnc1)cn2-c1cc(C#N)ccn1", "EC50": "< 100 nM"}
{"compound": "C[C@@H]1CN(C(=O)OC(C)(C)C)CCN1c1ncnc2c1c(N1CCOCC1)cn2-c1cc(F)cc(F)c1", "EC50": "500 to 2000 nM"}
{"compound": "C[C@@H]1CN(c2ncnc3c2c(N2CCCC2)cn3-c2cccc(OC(F)(F)F)c2)CCN1C(=O)OC(C)(C)C", "EC50": "< 100 nM"}
{"compound": "CCN(CCOC)c1cn(-c2cc(C#N)ccn2)c2ncnc(N3CCN(C(=O)OC(C)(C)C)C[C@@H]3C)c12", "EC50": "< 100 nM"}
{"compound": "Cc1nccnc1-c1cn(-c2cc(F)cc(F)c2)c2ncnc(N3CCN(C(=O)OC(C)(C)C)[C@H](C)C3)c12", "EC50": "100 to 500 nM"}
{"compound": "C[C@@H]1CN(c2ncnc3c2c(C2CC2)cn3-c2ccc(Cl)c(F)c2)CCN1C(=O)OC(C)(C)C", "EC50": "< 100 nM"}

Query: Give the value of EC50 reported for the following: Cc1nccnc1-c1cn(-c2cccc(OC(F)(F)F)c2)c2ncnc(N3CCN(C(=O)OC(C)(C)C)C[C@@H]3C)c12
Reply: 500 to 2000 nM

Query: Give the value of EC50 reported for the following: C[C@@H]1CN(c2ncnc3c2c(C2CC2)cn3-c2cccc(F)c2F)CCN1C(=O)OC(C)(C)C
Reply: 100 to 500 nM

Query: Give the value of EC50 reported for the following: C[C@H]1CN(C(=O)OC(C)(C)C)CCN1c1ncnc2c1c(-c1ccncc1)cn2-c1cc(C#N)ccn1
Reply: < 100 nM

Query: Give the value of EC50 reported for the following: CC(C)C(=O)N1CCN(c2nccc3c2c(-c2ccccc2F)cn3-c2cc(C#N)ccn2)[C@@H](C)C1
Reply: < 100 nM

Query: Give the value of EC50 reported for the following: Cc1nccnc1-c1cn(-c2cc(F)cc(F)c2)c2ncnc(N3CCN(C(=O)OC(C)(C)CF)C[C@@H]3C)c12
Reply: 500 to 2000 nM

Query: Give the value of EC50 reported for the following: C[C@H]1CN(C(=O)OC(C)(C)C)CCN1c1ncnc2c1c(N1CCCC1=O)cn2-c1cccc(Cl)c1
Reply: > 2000 nM

Query: Give the value of EC50 reported for the following: Cc1ccnc(-n2cc(-c3ccccc3F)c3c(N4C[C@@H](C)N(C(=O)OC(C)(C)C)C[C@@H]4C)ncnc32)c1
Reply: < 100 nM

Query: Give the value of EC50 reported for the following: Cc1cn(-c2cc(C#N)ccn2)c2ncnc(N3C[C@@H](C)N(C(=O)OC(C)(C)C)C[C@@H]3C)c12
Reply: < 100 nM

Query: Give the value of EC50 reported for the following: CC1CN(C(=O)OC(C)(C)C)CCN1c1ncnc2c1c(C1CC1)cn2-c1cncc(Cl)c1 (stereo not shown)
Reply: < 100 nM

Query: Give the value of EC50 reported for the following: CC(C)(C)OC(=O)N1CCN(c2ncnc3c2c(-c2ccccc2F)cn3-c2cc(C#N)ccn2)C2(CC2)C1
Reply: < 100 nM

Query: Give the value of EC50 reported for the following: Cc1nccnc1-c1cn(-c2ccc(F)cc2)c2ncnc(N3C[C@@H](C)N(C(=O)OC(C)(C)C)C[C@@H]3C)c12
Reply: 100 to 500 nM

Query: Give the value of EC50 reported for the following: COc1cccc(-n2cc(-c3nccnc3C)c3c(N4CCN(C(=O)OC(C)(C)C)C[C@@H]4C)ncnc32)c1
Reply: 500 to 2000 nM

Query: Give the value of EC50 reported for the following: CC(C)(C)OC(=O)N1CCN(c2ncnc3c2c(C2CCOCC2)cn3-c2cccc(Cl)c2)CC1
Reply: 100 to 500 nM

Query: Give the value of EC50 reported for the following: C[C@H]1CN(C(=O)OC(C)(C)C)CCN1c1ncnc2c1c(C1CCOCC1)nn2-c1cccc(Cl)c1
Reply: 500 to 2000 nM

Query: Give the value of EC50 reported for the following: C[C@@H]1CN(c2ncnc3c2c(C(F)(F)F)cn3-c2cc(C#N)ccn2)[C@@H](C)CN1C(=O)OC(C)(C)C
Reply: < 100 nM

Query: Give the value of EC50 reported for the following: C[C@H]1CN(C(=O)OC(C)(C)C)CCN1c1ncnc2c1c(N1CCCC1)cn2C1CCCC(F)(F)C1 (stereo partly shown)
Reply: 100 to 500 nM

Query: Give the value of EC50 reported for the following: C[C@H]1CN(C(=O)OC(C)(C)C)CCN1c1ncnc2c1c(N1CCOCC1)cn2-c1cc(C#N)ccn1
Reply: 100 to 500 nM

Query: Give the value of EC50 reported for the following: CCOC(=O)N1C[C@H](C)N(c2ncnc3c2c(-c2ccccc2F)cn3-c2ccccn2)C[C@H]1C
Reply: 100 to 500 nM
